Tested on: HOP-62 NSCLC
procedure-details: NCI tumour cell line growth inhibition, 48 h
TGI for assorted compounds

INPUT: Consider the compound shown here: "CCOC(=O)Oc1cc2c(ccn2C)c2c1c1ccccc1n2C(=O)OCC" What is its recorded TGI?
OUTPUT: > 100 µM

INPUT: And "COc1ccc2c(c1)[n+]([O-])c(-c1nc3ccccc3s1)c(N)[n+]2[O-]" ?
OUTPUT: > 100 µM

INPUT: Now try "O=C(O)CCSc1nnc(COc2ccc(Cl)cc2)n1-c1ccccc1" .
OUTPUT: > 100 µM

INPUT: What would you report for "COc1ccccc1NC(=O)C1=C(C)NC(C)=C(C(=O)Nc2ccccc2OC)C1c1ccccc1OC" ?
OUTPUT: > 100 µM

INPUT: Note, next up: "CC1=[N+]([O-])C(C)(C)N(O)C1(C)C"
OUTPUT: > 100 µM

INPUT: Follow-up entry: CC(C)N1CCCOC(c2ccc([N+](=O)[O-])cc2)O1 (stereo not given)
OUTPUT: > 100 µM

INPUT: Thanks! And "CCN(CC)c1ccc2c(c1)N=C1N=CC=CN1C2(c1ccc(N(C)C)cc1)c1ccc(N(C)C)cc1" ?
OUTPUT: 24.3 µM

INPUT: Try this compound next: COc1ccc(C(CC(=O)c2ccccc2)C(=O)c2ccc3c(c2)OCO3)cc1 (stereo not given)
OUTPUT: > 100 µM

INPUT: Cool, now "CCOC(=O)/C=C1\Nc2ccccc2-n2nnnc21"
OUTPUT: > 100 µM

INPUT: Further, for "CCOC(=O)c1c(Cl)c2c(n1Cc1cc(OC)cc(OC)c1)-c1oncc1CCC2" ?
OUTPUT: > 33.3 µM
